Property: Drug uptake; scope: individual compounds
tested on: Heart; experiment: Biodistribution in ICR mouse heart at 5 to 10 uCi, iv after 30 mins; assay type: ADME, organism-based; conditions: in vivo, 0.5 h
// units = % ID/g; emit number, no label

Solved cases below.
Smiles Notation	Measured Parameter	Experimental Value
CN(C)c1ccc(C#Cc2ccc(OCCOCC[18F])cc2)cc1	Drug uptake	2.82
CN(C)c1ccc(C#Cc2ccc(OCCOCCOCC[18F])cc2)cc1	Drug uptake	1.49

Query: Supply reported Drug uptake belonging to this compound: `CNc1ccc(C#Cc2ccc(OCCOCC[18F])cc2)cc1`
Response: 2.84

Query: Provide only the value of recorded Drug uptake for `CNc1ccc(C#Cc2ccc(OCCOCCOCC[18F])cc2)cc1`
Response: 1.4
